Recorded neutralization IC50 values for a group of binders are listed next.
biological target: HIV-1 Env of KER2008.12 (HIV-1); test: cell-based or functional assay

{"columns": ["Binder", "Value kind", "Value observed"],
 "data": [
  ["CAP256-VRC26.06 (antibody, V domains shown) VH: EVQLIESGGGVVQPGRSLRLSCGASGFSFNNYGMHWVRQAPGKGLEWVAGISFAGIKKYYGTSVKGRFTISRDNSKNNFYLQMNSLRVEDTALYYCARDLRELECEEWTLYNYYDFGSRGPCVDPRGVAGSFDVWGQGTMVTVSS VL: QSVLTQPPSVSAAPGQKVTISCSGSTSKIGQNSVSWYQQLPGTAPKLLIYENDRRPSGTPDRFSGSKSGTSATLAITGLQTGDEAEYYCETWDGSGGVFGTGTKVTVLG", "neutralization IC50", "> 50 µg/mL"]
]}

input: Query neutralization IC50 for CAP256-VRC26.09 (antibody, V domains shown) VH: EVQLVESGGGVVQPGRSLTLSCAASQFNFANYGMHWVRQAPGKGLEWVASISNDGTKKYHEESVWGRFTISKDNSKSTLFLQMNSLRIEDTALYFCVKDQREDECEEWWSDYYDFGRELPCRKSRGLGLAGIFDMWGHGTMVTVSS VL: QSALTQPPSVSAAPGQKVTISCSGNSSNIGNNFVSWYQQLPGTAPKLLIYENNRRPSGIPDRFSGSKSGTSATLAISGLQTGDEADYWCAVWGVRRGAGAVFGAGTKVTVLG
output: > 50 µg/mL

input: Answer with the recorded neutralization IC50 for the binder listed here: CAP256-VRC26.07 (antibody, V domains shown) VH: EVQLVESGGGVVQPGRSLRLSCVGSQFSFNRYGMHWVRQAPGKGLEWVAGISFDGTDRYHADNVWGRFTISRDNSKNTLYLQMSSLRAEDTALYYCAKDLREDECEEWWSDYYDFGKKLPCRKSRGVAGVFDKWGQGTMVTVSS VL: QAVLTQPPSVSAAPGQNVTISCSGSGSNIGNNFVSWYQQRPGTAPKLLIYESNKRPSGIPDRFSGSKSGTSATLAITGLQTGDEAYYYCATWAARLNSARVFGTGTMVTVLG
output: > 50 µg/mL
